Item-by-item account of IC50
Target: human SCD5 (Homo sapiens, UniProt Q86SK9)
Construct: expressed in transfected cells; host or cells: yeast strain with OLE1 deleted, plasmid-borne human SCD5 (selected in SD-Ura)
Sequence (Q86SK9 whole entry): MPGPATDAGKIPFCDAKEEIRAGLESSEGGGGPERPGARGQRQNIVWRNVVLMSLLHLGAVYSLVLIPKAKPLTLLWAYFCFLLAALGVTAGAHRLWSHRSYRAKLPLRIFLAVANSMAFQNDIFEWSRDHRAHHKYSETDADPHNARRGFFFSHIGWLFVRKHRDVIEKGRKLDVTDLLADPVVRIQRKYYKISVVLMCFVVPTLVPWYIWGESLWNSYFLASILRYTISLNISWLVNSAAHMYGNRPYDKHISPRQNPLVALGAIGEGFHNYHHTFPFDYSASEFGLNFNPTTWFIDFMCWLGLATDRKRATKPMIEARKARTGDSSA
Experiment: Growth inhibition of yeast strain expressing human SCD5 as sole desaturase (OLE1 deleted), OD600 readout
Format: cell-based
Settings: yeast strain expressing human SCD5 as sole desaturase; growth (OD600) after 40 h at 30° C.; read-out: SCD5 IC50
Value expressed in nM; do not type the unit.

>>> testresult("Cn1nc(C(=O)Nc2ccc(Cc3cc(F)cc(F)c3Cl)cn2)ccc1=O")
25

Indicate the recorded IC50 value for this compound: O=C(Nc1ccc(Cc2cc(F)cc(F)c2)cn1)c1cnnc(Cl)c1 10

Name the recorded IC50 of the compound listed here: N#Cc1ccc(C(=O)Nc2ccc(CC3CCCCC3)cn2)cn1 1320

Return reported IC50. Input compound: Cc1ccc(C(=O)Nc2ccc(Cc3cccc(Cl)c3)cn2)nn1 10

Give the measured IC50 for Cc1nccc(C(=O)Nc2ccc(Cc3cc(F)cc(F)c3)cn2)n1 10

Retrieve IC50 measured for Cn1cc(NC(=O)c2ccc(Cc3ccc(F)cc3)cn2)ccc1=O and print it. 10

Check the records and state IC50 for N#Cc1ccc(NC(=O)c2ccc(Cc3ccc(F)c(F)c3)cn2)cn1 10

Kindly indicate its recorded IC50. Item: Cn1cc(C(=O)Nc2ccc(Cc3cccc(F)c3)cc2)ccc1=O 1870
